- experiment_description: Pharmacokinetic profile Cmax was evaluated in rats
- Format: ADME, organism-based
- test_settings: rat, in vivo
reported_metric: Cmax (ng/mL)

C/C=C\C(C)(C)C[C@H]1[C@H](C(=O)O)[C@@H](c2cc(OC)c3c(c2)OCO3)CN1CC(=O)N(CCCC)CCCC | 660

[1] CCCCN(CCCC)C(=O)CN1C[C@H](c2ccc3c(c2)OCO3)[C@@H](C(=O)O)[C@@H]1CC(C)(C)CCC
[2] CCCCN(CCCC)C(=O)CN1C[C@H](c2ccc3c(c2)OCO3)[C@@H](C(=O)O)[C@@H]1CCc1ccccn1
Request: Which gives the smaller Cmax number: 1 or 2 ? Kindly state the label of the option you pick.
Result: 2
(2: 580 ng/mL, 1: 1480 ng/mL)

[I] CCCCN(CCCC)C(=O)CN1C[C@H](c2cc(OC)c3c(c2)OCO3)[C@@H](C(=O)O)[C@@H]1CC(C)(C)CCC
[II] CCCCN(CCCC)C(=O)CN1C[C@H](c2ccc3c(c2)OCO3)[C@@H](C(=O)O)[C@@H]1CCN1CCCC1=O
Request: For this pair, I and II , which shows a numerically higher Cmax? Kindly state the label of the option you pick.
Result: I
(I: 1690 ng/mL, II: 16 ng/mL)

---

Target protein (sequence): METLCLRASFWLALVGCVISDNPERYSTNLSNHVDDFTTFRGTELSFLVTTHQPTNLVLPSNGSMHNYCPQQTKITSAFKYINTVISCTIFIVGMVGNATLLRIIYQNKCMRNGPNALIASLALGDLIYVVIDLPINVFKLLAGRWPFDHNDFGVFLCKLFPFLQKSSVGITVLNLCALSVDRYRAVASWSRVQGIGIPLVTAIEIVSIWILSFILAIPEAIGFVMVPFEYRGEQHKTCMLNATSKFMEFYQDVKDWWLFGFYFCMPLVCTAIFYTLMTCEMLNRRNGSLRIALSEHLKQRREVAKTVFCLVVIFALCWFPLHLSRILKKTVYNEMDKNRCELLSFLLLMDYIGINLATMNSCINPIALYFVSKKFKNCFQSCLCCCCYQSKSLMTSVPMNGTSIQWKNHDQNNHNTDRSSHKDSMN
reported_metric: pKi
// returns pKi (minus log10 of molar concentration), number only

Request: Give me measured pKi, please, for this compound: `Cc1cc2c(cc1CC(=O)c1ccsc1S(=O)(=O)Nc1onc(C)c1Cl)OCO2`
Result: 9.37

---

- experimental_system: UniProtKB P24530
- Sequence (P24530 whole entry): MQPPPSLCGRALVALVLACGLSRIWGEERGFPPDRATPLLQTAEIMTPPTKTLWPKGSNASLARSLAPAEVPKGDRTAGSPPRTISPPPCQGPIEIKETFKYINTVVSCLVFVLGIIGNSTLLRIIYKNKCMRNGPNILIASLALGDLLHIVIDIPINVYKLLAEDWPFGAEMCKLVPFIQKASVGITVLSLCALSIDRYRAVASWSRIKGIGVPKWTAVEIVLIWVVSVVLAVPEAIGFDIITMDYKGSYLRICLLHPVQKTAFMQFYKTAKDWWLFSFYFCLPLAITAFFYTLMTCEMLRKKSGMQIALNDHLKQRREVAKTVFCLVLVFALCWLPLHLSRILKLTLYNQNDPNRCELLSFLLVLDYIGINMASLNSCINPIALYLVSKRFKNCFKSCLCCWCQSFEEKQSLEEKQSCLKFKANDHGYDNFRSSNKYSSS
- experiment_description: Tested for binding affinity for human Endothelin B receptor by measuring its ability to displace [125I]ET-3 from chinese hamster ovary cells(CHO)
reported_metric: IC50 (µM)

Some solved cases for reference:
C/C=C\C(C)(C)C[C@H]1[C@H](C(=O)O)[C@@H](c2cc(OC)c3c(c2)OCO3)CN1CC(=O)N(CCCC)CCCC | 39.7
CCCCN(CCCC)C(=O)CN1C[C@H](c2ccc3c(c2)OCO3)[C@@H](C(=O)O)[C@@H]1CCN1CCCC1=O | 18
CCCCN(CCCC)C(=O)CN1C[C@H](c2ccc3c(c2)OCO3)[C@@H](C(=O)O)[C@@H]1CCc1ccccn1 | 32

[a] CCCCN(CCCC)C(=O)CN1C[C@H](c2ccc3c(c2)OCO3)[C@@H](C(=O)O)[C@@H]1CCn1cccn1
[b] C/C=C\C(C)(C)C[C@H]1[C@H](C(=O)O)[C@@H](c2ccc3c(c2)OCO3)CN1CC(=O)N(CCCC)CCCC
[c] CCCCN(CCCC)C(=O)CN1C[C@H](c2ccc3c(c2)OCO3)[C@@H](C(=O)O)[C@@H]1CC(C)(C)CCC
Request: Ascending by IC50, please: list the molecules accordingly. List the labels in the requested order.
Result: c, a, b
(c: 2.8 µM, a: 42 µM, b: 92.7 µM)
